- assay protocol: NCI Yeast Anticancer Drug Screen. Data for the rad50 strain (AID 155)
- experimental setup: S. cerevisiae rad50 strain growth inhibition; at 50.0 µM
- Procedure: Growth inhibition of yeast strains with defined genetic alterations is measured as a screen for potential anti-cancer activity. Selected strains with alterations in DNA damage repair or cell cycle control were exposed to compounds and growth inhibition was measured relative to vehicle treated controls. The strain used in this assay is rad50
The panel holds about 79,000 compounds, 15% with a hit somewhere; the sample as a whole holds those more often. Active and inactive are the calls of the source. Cut-off read from the data, not from the text of the source: active = growth inhibition above about 70%; inactive = the rest.
Your response should consist of one outcome taken from active, inactive

molecule=CCCCN(C)CCNc1cc(C)nc(Nc2nc3ccc(Cl)cc3[nH]2)n1 category_label=active
molecule=CCCCCCCNC(=O)C(Cl)Cl category_label=inactive
molecule=CCOCCN1CCN(CCOCC)CC1 category_label=inactive
molecule=[Cl][Co][Cl].[NH-]CCC[NH-].[NH-]CCC[NH-] category_label=inactive
molecule="CN(C)C1C(CO)OC(n2cnc3c(N)ncnc32)C1O (configuration not stated)" category_label=inactive

Would you mind telling me which call this test gave `COCCCN1CC(=O)N2Cc3ccccc3CN2C(=O)C1` ?
inactive

Also, `O=C(O)CCc1ccc2ccccc2n1` please.
inactive

Also, `COc1cccc(C(N)=O)c1OC` please.
inactive

Also, C=C1C(=O)OC2CC3(C)C=CC(=O)C(=C)C3CC12 (configuration not stated) please.
inactive

Also, OC1CC2COCC2CC1O (configuration not stated) please.
inactive

Also, `CCN=C1Nc2ccccc2-n2c(nn3nc4ccccc4c23)N1CC` please.
inactive

Also, `Cc1cc2c(C(C)C)c(O)c(O)c(C=Nc3ccc(-c4ccccc4)cc3)c2c(O)c1-c1c(C)cc2c(C(C)C)c(O)c(O)c(C=Nc3ccc(-c4ccccc4)cc3)c2c1O` please.
inactive

All values here come from PubChem BioAssay (NCI).
